Just for reference, patent US12240844B2 is where these values come from.

human GST-CLK1 (129-end) (Homo sapiens, UniProt P49759) data, read-out IC50
Sequence (P49759 129-484 limits assumed): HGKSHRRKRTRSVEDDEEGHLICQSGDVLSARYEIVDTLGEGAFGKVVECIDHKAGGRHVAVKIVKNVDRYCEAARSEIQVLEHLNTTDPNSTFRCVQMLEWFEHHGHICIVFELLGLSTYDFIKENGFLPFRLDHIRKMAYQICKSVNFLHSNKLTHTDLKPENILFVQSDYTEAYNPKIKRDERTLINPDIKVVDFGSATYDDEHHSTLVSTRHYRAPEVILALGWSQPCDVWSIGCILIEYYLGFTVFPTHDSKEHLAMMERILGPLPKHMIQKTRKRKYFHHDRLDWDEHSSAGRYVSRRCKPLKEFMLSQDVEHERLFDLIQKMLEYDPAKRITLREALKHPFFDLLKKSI

The reported IC50 value, human GST-CLK1 (129-end) (Homo sapiens, UniProt P49759), for COCCNc1cc(Nc2ccc(C(=O)N3CCOCC3)c3c2OCCO3)nc2[nH]cc(C#N)c12 reads < 0.1 µM

Item CN(C)CCNc1cc(Nc2ccc(C(=O)N3CCC(N4CCOCC4)CC3)c3c2OCCO3)nc2[nH]cc(C(F)(F)F)c12 ; assay system human GST-CLK1 (129-end) (Homo sapiens, UniProt P49759); IC50 reported as 0.101 to 0.3 µM

Reported human GST-CLK1 (129-end) (Homo sapiens, UniProt P49759) IC50 for item COCCNc1cc(Nc2ccc(C(=O)N3CCOCC3)c3c2OCCO3)nc2[nH]cc(Cl)c12 was 0.301 to 1 µM

For the compound COc1cc(S(=O)(=O)N2CCC(N3CCOCC3)CC2)ccc1Nc1cc(NC2CCCCC2)c2c(Cl)c[nH]c2n1 , the measured IC50 on human GST-CLK1 (129-end) (Homo sapiens, UniProt P49759) was 0.301 to 1 µM

Item CCNc1cc(Nc2ccc(S(=O)(=O)N3CCOCC3)cc2OC)nc2[nH]cc(Cl)c12 ; assay system human GST-CLK1 (129-end) (Homo sapiens, UniProt P49759); IC50 reported as 0.301 to 1 µM

For the compound O=C(c1ccc(Nc2cc(NC3CC3)c3c(C(F)(F)F)c[nH]c3n2)c2c1OCCO2)N1CCC(N2CCOCC2)CC1 , the measured IC50 on human GST-CLK1 (129-end) (Homo sapiens, UniProt P49759) was < 0.1 µM

Bench note, human GST-CLK1 (129-end) (Homo sapiens, UniProt P49759): COc1cc(S(C)(=O)=O)ccc1Nc1cc(NC2CC2)c2cc[nH]c2n1 , IC50 reads 0.301 to 1 µM

# lookup: O=C(c1ccc(Nc2cc(NC3CC3)c3cc[nH]c3n2)c2c1OCCO2)N1CCOCC1 on human GST-CLK1 (129-end) (Homo sapiens, UniProt P49759), IC50 = 0.301 to 1 µM

----------
Here we list molecules with their recorded pIC50 when tested on UniProtKB Q13627.
pIC50: −log10 of the molar value.

Reported pIC50 of N#Cc1c[nH]c2nc(Nc3ccc(C(=O)N4CCC(N5CCOCC5)CC4)c4c3OCCO4)cc(NC3CCC3)c12 [Example 117] : 6.00 to 6.52

Notebook: O=C(c1ccc(Nc2cc(NC3CC3)c3c(C(F)(F)F)c[nH]c3n2)c2c1OCCO2)N1CCC(N2CCOCC2)CC1 [Example 163] , pIC50 read as 6.52 to 7.00

----------
# System: human DYRK1A and Tau
# test: Tau phosphorylation inhibition, ClariCELL Kinase Cell-Based Assay (Carnabio)
# test conditions: 0.5 uM
Assign class by inhibition at 0.5 µM: not lower than 30% means 1; lower than 30% means 0.

Some solved entries appear below for comparison.
CCNc1cc(Nc2ccc(C(=O)N3CCC(N4C[C@@H]5C[C@H]4CO5)CC3)c3c2OCC3)nc2[nH]cc(C(F)(F)F)c12
1
CCNc1cc(Nc2ccc(S(=O)(=O)N3CCC(N4CCOCC4)CC3)cc2OC)nc2[nH]cc(C(F)(F)F)c12
1
CCNc1cc(Nc2ccc(C(=O)N3CC[C@H](N4CCOCC4)C3)c3c2OCC3)nc2[nH]cc(C(F)(F)F)c12
1

Input: Item CNc1cc(Nc2ccc(S(=O)(=O)N3CCC(N4CCOCC4)CC3)c3c2OCCO3)nc2[nH]cc(C(F)(F)F)c12 with inhibition at 0.5 µM of 30% or above?
Output: 1

Input: Does inhibition at 0.5 µM meet or surpass 30% for CNc1cc(Nc2ccc(S(=O)(=O)N3CCC(N4C[C@H]5C[C@@H]4CO5)CC3)cc2OC)nc2[nH]cc(C(F)(F)F)c12 ?
Output: 1

Input: Does the compound C=CCNc1cc(Nc2ccc(C(=O)N3CCC(N4CCOCC4)CC3)c3c2OCC3)nc2[nH]cc(C(F)(F)F)c12 have recorded inhibition at 0.5 µM that is 30% or more?
Output: 1

Input: Identify whether the reported inhibition at 0.5 µM of the following compound is 30% or greater: COc1cc(S(=O)(=O)N2CCC(N3CCOCC3)CC2)ccc1Nc1cc(C2CC2)c2c(C(F)(F)F)c[nH]c2n1
Output: 0

Input: Does the reported inhibition at 0.5 µM for CCNc1cc(Nc2ccc(S(=O)(=O)N3CCC(N4CCOCC4)CC3)c3c2OCCO3)nc2[nH]cc(C(F)(F)F)c12 fall at or above the 30% mark?
Output: 0

Input: For this compound, is measured inhibition at 0.5 µM 30% or higher? O=C(c1ccc(Nc2cc(C3CC3)c3c(C(F)(F)F)c[nH]c3n2)c2c1CCO2)N1CC[C@@H](N2CCOCC2)C1
Output: 0

Input: Check the entry O=C(c1ccc(Nc2cc(NC3CC3)c3c(C(F)(F)F)c[nH]c3n2)c2c1CCO2)N1CCC(N2CCOCC2)CC1 : does inhibition at 0.5 µM equal or exceed 30%?
Output: 1

Input: Threshold query (inhibition at 0.5 µM >= 30%) on COCCNc1cc(Nc2ccc(S(=O)(=O)N3CCC(N4CCOCC4)CC3)c3c2OCCO3)nc2[nH]cc(C(F)(F)F)c12
Output: 1

Input: Decide: is the reported value of inhibition at 0.5 µM for COc1cc(P2(=O)CCN(C3COC3)CC2)ccc1Nc1cc(C2CC2)c2c(C(F)(F)F)c[nH]c2n1 equal to or greater than 30%?
Output: 0
